Molecular target: T1, human WARS1 recombinant protein (human, UniProt P23381 2-471, limits assumed)
T1 construct: Recombinant protein, detected with an anti-His tag antibody; In the western blot also secreted WARS1 from THP-1 supernatant and human serum; also called human-derived WARS1 recombinant protein
T1 sequence: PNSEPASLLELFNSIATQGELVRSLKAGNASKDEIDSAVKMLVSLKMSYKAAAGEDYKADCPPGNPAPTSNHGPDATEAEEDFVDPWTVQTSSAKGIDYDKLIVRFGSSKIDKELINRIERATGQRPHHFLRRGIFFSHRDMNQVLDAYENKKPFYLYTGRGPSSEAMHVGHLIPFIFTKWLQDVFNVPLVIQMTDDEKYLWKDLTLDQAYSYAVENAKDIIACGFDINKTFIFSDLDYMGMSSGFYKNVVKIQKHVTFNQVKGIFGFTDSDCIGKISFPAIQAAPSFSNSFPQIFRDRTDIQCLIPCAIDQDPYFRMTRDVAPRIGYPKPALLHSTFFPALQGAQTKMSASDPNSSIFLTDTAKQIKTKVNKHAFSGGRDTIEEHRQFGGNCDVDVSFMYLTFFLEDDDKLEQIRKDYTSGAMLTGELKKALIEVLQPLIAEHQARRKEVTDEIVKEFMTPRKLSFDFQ
Experiment: direct ELISA
Experimental: Specifically, for direct ELISA, a 96-well plate (Maxisorp, Thermo Fisher) was coated with WARS1 having a 1 μg/ml concentration of a recombinant protein derived from human, marmoset (NHP), mouse, rat, and pig, and then blocked with PBS containing 1% BSA at room temperature for 1 hour. […] Lastly, after developing with a TMB substrate (BD), its absorbance was measured at 490 nm (NIVO) (FIGS. 4a to 5).

Binder	Kd
SHL/ILN (antibody, V domains shown, L-CDR2 and L-CDR3 variant of GKB101; also called SHL/ILN antibody) VH: EVQLLESGGGLVQPGGSLRLSCAASGFTFSSYDMSWVRQAPGKGLEWVSAISSGGSSIYYADSVKGRFTISRDNSKNTLYLQMNSLRAEDTAVYYCARDVAWDMLGDFDYWGQGTLVTVSS VL: QSVLTQPPSASGTPGQRVTISCTGSSSNIGSNYVYWYQQLPGTAPKLLIYANILRPSGVPDRFSGSKSGTSASLAISGLRSEDEADYYCGAWDDSNSAYVFGGGTKLTVLT	~1 pM
H54K (antibody, V domains shown, L-CDR2 variant of GKB101; also called H54K antibody; M105A) VH: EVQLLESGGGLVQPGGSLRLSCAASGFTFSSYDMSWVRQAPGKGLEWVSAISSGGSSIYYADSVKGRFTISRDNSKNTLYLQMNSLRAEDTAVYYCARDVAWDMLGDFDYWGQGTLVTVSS VL: QSVLTQPPSASGTPGQRVTISCTGSSSNIGSNYVYWYQQLPGTAPKLLIYANSKRPSGVPDRFSGSKSGTSASLAISGLRSEDEADYYCGAWDDSLSAYVFGGGTKLTVLT	~1 pM
